Where do these numbers come from? They come from patent EP3952872B1.

- Target under test: dopamine D2S receptor (Homo sapiens)
- Sequence (P14416 1-414 isoform P14416-2): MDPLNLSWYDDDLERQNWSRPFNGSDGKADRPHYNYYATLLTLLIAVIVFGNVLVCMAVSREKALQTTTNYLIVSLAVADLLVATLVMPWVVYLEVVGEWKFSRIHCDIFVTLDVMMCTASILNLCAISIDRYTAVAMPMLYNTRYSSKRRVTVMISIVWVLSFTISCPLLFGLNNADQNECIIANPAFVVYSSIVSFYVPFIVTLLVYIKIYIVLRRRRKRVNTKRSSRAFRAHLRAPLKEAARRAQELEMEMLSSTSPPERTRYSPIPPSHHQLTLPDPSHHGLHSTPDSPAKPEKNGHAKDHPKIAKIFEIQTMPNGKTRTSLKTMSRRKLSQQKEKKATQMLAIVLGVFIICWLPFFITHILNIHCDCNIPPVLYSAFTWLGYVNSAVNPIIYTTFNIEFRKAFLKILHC
Readout type: Ki (nM)
Report as a plain number; the unit nM is understood.

Problem: What Ki value was documented for this compound, "O=C(N[C@H]1CC[C@H](CCN2CCN(c3cccc(Cl)c3Cl)CC2)CC1)N1CCOCC1" ?
Solution: 0.52

---

- Target under test: serotonin 5-HT2B receptor (Homo sapiens, UniProt P41595)
- Sequence (P41595 whole entry): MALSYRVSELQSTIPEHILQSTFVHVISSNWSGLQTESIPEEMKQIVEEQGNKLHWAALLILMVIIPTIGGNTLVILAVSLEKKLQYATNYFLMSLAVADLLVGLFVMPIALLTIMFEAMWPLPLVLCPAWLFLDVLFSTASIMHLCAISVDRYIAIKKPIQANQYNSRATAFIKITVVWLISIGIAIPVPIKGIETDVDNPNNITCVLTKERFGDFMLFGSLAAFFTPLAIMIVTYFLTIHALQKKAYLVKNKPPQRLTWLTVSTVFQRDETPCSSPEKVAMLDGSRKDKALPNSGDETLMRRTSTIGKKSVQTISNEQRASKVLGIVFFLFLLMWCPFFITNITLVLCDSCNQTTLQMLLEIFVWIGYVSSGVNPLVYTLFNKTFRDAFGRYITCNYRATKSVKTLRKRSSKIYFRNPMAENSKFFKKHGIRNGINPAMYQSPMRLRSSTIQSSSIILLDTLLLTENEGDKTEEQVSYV
Readout type: pKi
The read-out pKi is expressed as -log10 of concentration in moles per litre.

Problem: What pKi value was documented for this compound, O=C(N[C@H]1CC[C@H](CCN2CCN(c3cccc(Cl)c3Cl)CC2)CC1)N1CCOCC1 [Compound 2] ?
Solution: 8.95
